# measured target: ScBem1-D1
# assay procedure: SPOT peptide array binding signal intensity (averaged, normalized) (arbitrary units (background-subtracted, floor 0; scale differs between SH3 domains)); higher = stronger binding of the SH3 domain to the peptide
measured attribute: SPOT peptide array binding signal intensity
Answer as a number with no unit attached.

As a guide, the following entries are already answered.
{"binder": "KNPRRQLQIPRQQPS", "recorded value": 29}
{"binder": "PKRRAPPPVPKKPSS", "recorded value": 40}
{"binder": "RSKRLFPVRPMATAH", "recorded value": 5}

Enquiry: Note SPOT peptide array binding signal intensity for the binder shown: TYNRTAFQIPGDQSI
Return: 11

Enquiry: Note SPOT peptide array binding signal intensity for the binder shown: LKHGWKPLRPIKLIS
Return: 9
